Tested on: clinical isolates of multidrug-resistant Klebsiella pneumoniae (and ATCC43816)
Assay: MIC determination at Fidelta, clinical isolates
Assay type: cell-based
Settings: Klebsiella pneumoniae, ATCC43816, KP-1936; Abscess/NDM; read-out: MIC 90
measured.property: MIC90 (µg/mL)
The answer is to be given in µg/mL; state only the numeric part.

Here are 4 compounds together with their reported answers.
| compound | study.target | units.text | MIC90 |
| --- | --- | --- | --- |
| N=C(N)NC1[C@@H](O)C(OC2[C@@H](F)[C@H](O[C@H]3OC(CN)[C@@H](O)[C@H](O)C3N)C(N)C[C@H]2NC(=O)[C@@H](O)CCN)O[C@H](CO)[C@H]1O (some centres unmarked) | clinical isolates of multidrug-resistant Klebsiella pneumoniae (and ATCC43816) | µg/mL | 0.5 |
| N=C(N)NC1C(O)[C@@H](CO)OC(OC2C(F)[C@H](O[C@H]3OC(CN)[C@@H](O)CC3N)C(N)C[C@H]2NC(=O)[C@@H](O)CCN)[C@@H]1O (some centres unmarked) | clinical isolates of multidrug-resistant Klebsiella pneumoniae (and ATCC43816) | µg/mL | 0.5 |
| N=C(NCCN)NC1C(O)[C@@H](CO)OC(OC2C(F)[C@H](O[C@H]3OC(CN)[C@@H](O)CC3N)C(N)C[C@H]2NC(=O)[C@@H](O)CCN)[C@@H]1O (some centres unmarked) | clinical isolates of multidrug-resistant Klebsiella pneumoniae (and ATCC43816) | µg/mL | 2 |
| N=C(NC[C@@H]1CCNC1)NC1[C@@H](O)C(OC2[C@@H](F)[C@H](O[C@H]3OC(CN)[C@@H](O)CC3N)C(N)C[C@H]2NC(=O)[C@@H](O)CCN)O[C@H](CO)[C@H]1O (some centres unmarked) | clinical isolates of multidrug-resistant Klebsiella pneumoniae (and ATCC43816) | µg/mL | 1 |

Query N=C(NC[C@@H]1CCCN1)NC1[C@@H](O)C(OC2[C@@H](F)[C@H](O[C@H]3OC(CN)[C@@H](O)CC3N)C(N)C[C@H]2NC(=O)[C@@H](O)CCN)O[C@H](CO)[C@H]1O (some centres unmarked) yields MIC90 of 1

###

Measured MIC50 values are reported for all entries that follow.
System: A. baumannii DSM 105126
Experiment: MIC 50, broth micro-dilution, DSM strains
Type: cell-based, Acinetobacter baumannii
# output: numeric value plus its unit

Here are 2 molecules together with their reported answers.
| molecule | value.reported |
| --- | --- |
| NCC[C@H](O)C(=O)N[C@@H]1CC(N)[C@@H](O[C@H]2OC(CN)[C@@H](O)CC2N)[C@H](F)C1OC1O[C@H](CO)[C@@H](O)C(N)[C@H]1O (stereo partly drawn) | 0.125 µM |
| N=C(N)NC1[C@@H](O)C(OC2[C@@H](O)[C@H](O[C@H]3OC(CN)[C@@H](O)CC3N)C(N)C[C@H]2NC(=O)[C@@H](O)CCN)O[C@H](CO)[C@H]1O (stereo partly drawn) | 0.25 µM |

Please look at the following molecule next.
Query N=C(N)NC1[C@@H](O)C(OC2[C@@H](O)[C@H](O[C@H]3OC(CN)[C@@H](O)[C@H](O)C3N)C(N)C[C@H]2NC(=O)[C@@H](O)CCN)O[C@H](CO)[C@H]1O (stereo partly drawn) yields MIC50 of 0.5 µM
